test: yeast display, Sf9 membrane polyspecificity reagent, FACS + sequencing; frameworks hold sequencing errors
Metric: polyreactivity (PSR sort gate)

Look over these answered cases.
[[record]]
residues = "QVQLVESGGGLVQAGGSLRLSCAASGISFNSYTMGGYRQAPGKERELVAAITASGGTTRYADSVKGRFTISRDNAKNTVYLQMNSLKPEYTAVYYCNALPFRYGKRRGYWGQGTQVTVSS"
reported_measurement = "low polyreactivity"

[[record]]
residues = "QVQLVESGGGLVQAGGSLRLSCAASGRTFVRNAMGWYRQAPGKERELVASITSGGSTYYADSVKGRFTISRDNAKNTVYLQMNSLKAEDTAVYYCAKRTYTPVYGYYYWGQGTQVTVSS"
reported_measurement = "high polyreactivity"

[[record]]
residues = "QVQLVESGGGLVQAGGSLRLSCAASGSIFESYVMGWYRQAPGKERELVAAISSGGSTYYADSVKGRFTISRDNAKNTVYLQMNSLKPEDTAVYYCNTEVVRFKYDYWGQGTQVTVSS"
reported_measurement = "low polyreactivity"

[[record]]
residues = "QVQLVESGGGLVQAGGSLRISCAASGGIIAINSMRCYRQAPGKERELVAAISWGDGITYYSDSVKRRFTISRDNAKYTVYLHMISLKPEDTAVYYCAADEDEYRGGDESWGQGTQVTVSA"
reported_measurement = "low polyreactivity"

[[record]]
residues = "QVQLVESGGGLVQAGGSLRLSCAASGRTFPGNAMGWYRQAPGKERELVAAISYRGGSTYYADSVKGRFTISRDNAKNTVYLQMNSLKPEDTAVYYCAAASERTGYYYWGQGTQVTVSS"
reported_measurement = "high polyreactivity"


Please fill in: polyreactivity (PSR sort gate) reported for QVQHVESGGGLVQAGGSLRLSCAASGITFGRNTKGWYRQAPGKERELVAAIDSGGNTYADSVKGRFTISRDNAKNTVYLQMNSLKPEDTAVYYCAVDGGEFSSYGYWGQGTQVTVSS = low polyreactivity

Please fill in: polyreactivity (PSR sort gate) reported for QVQLVESGGGLVQAGGSLRLSCAASGSTFAYNAMGWYRQAPGKERELVATMSYSGGTTDYADSVKGRFTISRDNAKNTVYLQMNSLKPEDTAVYYCNADHLTWGGWGIRKYDYWGQGTQVTVSS = high polyreactivity

Please fill in: polyreactivity (PSR sort gate) reported for QVQLVESGGGLVQAGGSLRLSCAASGSIFYRNVMGWYRQAPGKERELVATISRGGTSNYADSVKGRFTISRDNAKNTVYLQMNSLKPEDTAVYYCAAPIGDVYVGKGYDSWGQGTQVTVSS = low polyreactivity

###

assay: yeast display, Sf9 membrane polyspecificity reagent, FACS + sequencing; frameworks hold sequencing errors
Metric: polyreactivity (PSR sort gate)

Look over these answered cases.
[[record]]
residues = "QVQLVESGGGLVQAGGSLRLSCAASGLIFNRYVMGWYRQARGKERELVAAITCSGDSTYYADSVKGRFTISRDNAKNTVYLQMNSLKPVDTAVYYCAAWDYRYTDREGDYWGPGTQVTVSS"
metric = "polyreactivity (PSR sort gate)"
reported_measurement = "high polyreactivity"

[[record]]
residues = "QVQLVESGGGLVQAGGSLRLSCAASGSNFPHYTMGWYRQAPAKERELVAAISNYGSSTYYADSVKGRFTISRDNAKNTVYLQMNSLKPEDTAVYYCNADDYGYSPGVNYWGQGTQVTVSS"
metric = "polyreactivity (PSR sort gate)"
reported_measurement = "low polyreactivity"

[[record]]
residues = "QVQLVESGGGLVQAGGTLRLSCAASGSIFRYYAMGWYRQAPGKERELVATITSTGGSTYYADSVKGRFTISRDNAKNTVYLQMNSLKPEDTAVYYCAARNKLYVTVRGYYLSGYWGQGTQVTVSS"
metric = "polyreactivity (PSR sort gate)"
reported_measurement = "high polyreactivity"

[[record]]
residues = "QVHLVESGGGLVQAGGSLRLSCAASGRILGDYAMGWYRQAPGKEREFVAAIDYNGGSTNYADSVKGRFTISRDNAKNTVYLQMNSLKPEDTAVYYCAAPGFPSRNGFGYWGQGTQVTVSS"
metric = "polyreactivity (PSR sort gate)"
reported_measurement = "low polyreactivity"


Consider the additional sequence presented here.
Please fill in: polyreactivity (PSR sort gate) reported for QVQLVESGAGLVQAGGSLRLSCAASGFIFFYYAMGWYRQAPGKERELVAAISASGGSTYYADSVKGRFTISRDNAKNTVYLQLNSLKPEDTAVYYCAARYRKAESARWEYDYWGQGTQVTVSS = high polyreactivity
